// data source = patent US20210045385A1

- System: corn (Zea mays)
- runDescription: Test C postemergence, visual plant response rating
- Assay type: in vivo
- conditionSummary: Test C, postemergence, 125 g ai/ha
quantity: Corn plant response rating (0 to 100 scale)

{"compound": "C#CCO/N=C(/c1c(O)c(C)nn(C)c1=O)c1cccc2cc(Cl)ccc12 [Compound 242]", "measurementTarget": "corn (Zea mays)", "reportedResult": 20}
{"compound": "C#CCO/N=C(\\c1cc(Cl)cc(Cl)c1Cl)c1c(O)c(C)nn(C)c1=O [Compound 187]", "measurementTarget": "corn (Zea mays)", "reportedResult": 20}
{"compound": "CO/N=C(\\c1cc(Cl)cc(Br)c1)c1c(O)c(C)nn(C)c1=O [Compound 157]", "measurementTarget": "corn (Zea mays)", "reportedResult": 30}
{"compound": "C#CCO/N=C(\\c1ccc(F)c(Cl)c1)c1c(O)c(C)nn(C)c1=O [Compound 230]", "measurementTarget": "corn (Zea mays)", "reportedResult": 0}
{"compound": "CO/N=C(\\c1ccc(Cl)c(Cl)c1)c1c(O)c(C)nn(C)c1=O [Compound 217]", "measurementTarget": "corn (Zea mays)", "reportedResult": 0}
